system_tested: T1, recombinant human FGF23 (R179Q) (human, UniProt Q9GZV9 25-251)
T1 construct: also called rhFGF23(R179Q); hFGF23(R179Q)
T1 sequence (looked up): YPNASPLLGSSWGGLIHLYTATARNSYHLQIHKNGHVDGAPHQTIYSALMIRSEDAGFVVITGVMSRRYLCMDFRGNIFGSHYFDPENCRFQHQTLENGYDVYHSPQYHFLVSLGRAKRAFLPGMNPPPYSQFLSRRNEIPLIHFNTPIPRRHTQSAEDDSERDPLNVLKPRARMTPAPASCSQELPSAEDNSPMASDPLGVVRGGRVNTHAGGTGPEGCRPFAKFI
assay_remarks: SPR, antibody captured on hIgG chip, rhFGF23(R179Q) analyte
# Ratio (variant antibody KD/burosumab KD) values compiled below
measured_attribute: Ratio (variant antibody KD/burosumab KD)

>>> numeric_readout("UGX130 (antibody, human IgG1, kappa, V domains shown, also called LC:S53E) VH: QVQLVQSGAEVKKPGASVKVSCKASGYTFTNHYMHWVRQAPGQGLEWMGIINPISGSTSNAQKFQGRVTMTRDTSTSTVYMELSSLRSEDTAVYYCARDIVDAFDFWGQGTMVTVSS VL: AIQLTQSPSSLSASVGDRVTITCRASQGISSALVWYQQKPGKAPKLLIYDASELESGVPSRFSGSGSGTDFTLTISSLQPEDFATYYCQQFNDYFTFGPGTKVDIKR")
1
>>> numeric_readout("UGX133 (antibody, human IgG1, kappa, V domains shown, also called UGX022; LC:S53Y) VH: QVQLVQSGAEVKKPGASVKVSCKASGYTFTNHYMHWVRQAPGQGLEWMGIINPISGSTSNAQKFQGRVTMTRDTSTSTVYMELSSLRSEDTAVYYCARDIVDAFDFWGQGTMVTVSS VL: AIQLTQSPSSLSASVGDRVTITCRASQGISSALVWYQQKPGKAPKLLIYDASYLESGVPSRFSGSGSGTDFTLTISSLQPEDFATYYCQQFNDYFTFGPGTKVDIKR")
0
>>> numeric_readout("UGX117 (antibody, human IgG1, kappa, V domains shown, also called LC:V34I) VH: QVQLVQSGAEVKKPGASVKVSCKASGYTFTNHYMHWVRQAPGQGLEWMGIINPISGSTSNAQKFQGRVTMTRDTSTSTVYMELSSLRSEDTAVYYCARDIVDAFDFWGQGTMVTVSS VL: AIQLTQSPSSLSASVGDRVTITCRASQGISSALIWYQQKPGKAPKLLIYDASSLESGVPSRFSGSGSGTDFTLTISSLQPEDFATYYCQQFNDYFTFGPGTKVDIKR")
0
